Please go through the items and note down their IC50.
# STUDY_SYSTEM: Human KDR (residues 790-1356) (Homo sapiens (Human))
# Sequence (P35968 790-1356): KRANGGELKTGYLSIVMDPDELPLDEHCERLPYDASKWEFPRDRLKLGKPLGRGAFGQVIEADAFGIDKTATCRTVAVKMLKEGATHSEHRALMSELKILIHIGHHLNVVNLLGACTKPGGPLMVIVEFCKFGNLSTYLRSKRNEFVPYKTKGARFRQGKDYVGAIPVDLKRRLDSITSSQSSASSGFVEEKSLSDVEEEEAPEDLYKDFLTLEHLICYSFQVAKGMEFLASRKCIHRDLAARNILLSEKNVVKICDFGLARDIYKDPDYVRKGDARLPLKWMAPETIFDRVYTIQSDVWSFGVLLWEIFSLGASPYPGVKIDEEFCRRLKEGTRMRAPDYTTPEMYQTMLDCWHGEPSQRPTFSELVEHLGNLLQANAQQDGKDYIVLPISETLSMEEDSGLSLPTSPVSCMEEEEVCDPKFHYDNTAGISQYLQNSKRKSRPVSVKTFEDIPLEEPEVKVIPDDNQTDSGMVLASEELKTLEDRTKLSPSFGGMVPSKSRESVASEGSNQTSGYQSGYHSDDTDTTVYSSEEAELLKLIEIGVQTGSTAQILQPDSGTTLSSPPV
# EXPERIMENTAL_DETAILS: Human KDR kinase assay, HTRF KinEase (Example B-2)
# Assay type: biochemical
# RECORDED_CONDITIONS: protocol of Example B-2 (other compounds)

Query string: Any idea what its IC50 is? The compound is `COc1ccc2nccc(Oc3ccc(NC(=O)c4ccc(C)n(-c5ccc(F)cc5)c4=O)cc3)c2n1`
Result string: 100 to 300 nM

Query string: Any idea what its IC50 is? The compound is `COc1cnc2c(Oc3ccc(NC(=O)c4cccn(-c5ccc(F)cc5)c4=O)cc3F)ccnc2c1`
Result string: > 300 nM

Query string: Any idea what its IC50 is? The compound is `CCn1cc(C(=O)Nc2ccc(Oc3ccnc4cc(OC)c(OC)nc34)c(F)c2)c(=O)c(-c2ccc(F)cc2)c1C`
Result string: < 100 nM

Query string: Any idea what its IC50 is? The compound is `CCn1cc(-c2ccc(F)cc2)c(=O)c(C(=O)Nc2ccc(Oc3ccnc4cc(OC)c(OC)nc34)c(F)c2)c1C`
Result string: 100 to 300 nM

Query string: Any idea what its IC50 is? The compound is `Cc1cc2nccc(Oc3ccc(NC(=O)c4cnc(C)c(-c5ccc(F)cc5)c4O)cc3F)c2nc1F`
Result string: 100 to 300 nM

Query string: Any idea what its IC50 is? The compound is `COc1cc2nccc(Oc3ccc(NC(=O)c4n[nH]c(C)c(-c5ccc(F)cc5)c4=O)cc3F)c2nc1OC`
Result string: < 100 nM

Query string: Any idea what its IC50 is? The compound is `COc1cc2nccc(Oc3ccc(NC(=O)c4c(C)c(C)c(C)n(-c5ccc(F)cc5)c4=O)cc3F)c2nc1OC`
Result string: > 300 nM

Query string: Any idea what its IC50 is? The compound is `COc1ccc2nccc(Oc3ccc(NC(=O)c4c(C)nc(C)c(-c5ccc(F)cc5)c4O)cc3F)c2c1`
Result string: 100 to 300 nM

Query string: Any idea what its IC50 is? The compound is `COc1cc2nccc(Oc3ccc(NC(=O)c4cn(C5CC5)c(C)c(-c5ccc(F)cc5)c4=O)cc3)c2nc1OC`
Result string: > 300 nM

Query string: Any idea what its IC50 is? The compound is `CC(C)n1cc(C(=O)Nc2ccc(Oc3ccnc4cc(F)cnc34)c(F)c2)c(=O)c(-c2ccc(F)cc2)c1`
Result string: < 100 nM

Query string: Any idea what its IC50 is? The compound is `COc1cnc2c(Oc3ccc(NC(=O)c4c(C)n(C)cc(-c5ccc(F)cc5)c4=O)cc3F)ccnc2c1`
Result string: > 300 nM

Query string: Any idea what its IC50 is? The compound is `COc1ccc2nccc(Oc3ccc(NC(=O)c4cnc(C)c(-c5ccc(F)cc5)c4O)cc3F)c2c1`
Result string: 100 to 300 nM

Query string: Any idea what its IC50 is? The compound is `Cc1c(-c2ccc(F)cc2)c(=O)c(C(=O)Nc2ccc(Oc3ccnc4cc(C(F)(F)F)cnc34)c(F)c2)cn1C(C)C`
Result string: > 300 nM

Query string: Any idea what its IC50 is? The compound is `COc1cnc2c(Oc3ccc(NC(=O)c4cn(C(C)(C)C)c(C)c(-c5ccc(F)cc5)c4=O)cc3F)ccnc2c1`
Result string: > 300 nM

The origin of these recorded values is patent US12371428B2.
